Target: human RXFP1 (Homo sapiens)
Assay: RXFP1 Hu cAMP (Test A)
Type: cell-based
Set-up: expressed in transfected cells; host or cells: Jump-In T-REx CHO-K1 cells (ThermoFisher), induced with 10 ng/ml doxycycline for 24 h
Settings: RXFP1 Hu cAMP; read-out: Test A EC50
MEASUREMENT NAME: EC50 (nM)

Here are 5 molecules together with their reported answers.
>  <MOLECULE>
COc1cc(F)c(O[C@H]2CC[C@@](C)(C(=O)O)CC2)cc1C(=O)N[C@@H]1CC[C@@H]1C(=O)Nc1ccc(F)c(C(F)(F)F)c1

>  <QUANTITY UNIT>
nM

>  <EC50>
58

$$$$
>  <MOLECULE>
COc1cc(C#N)c(O[C@H]2CC[C@@](C)(C(=O)O)CC2)cc1C(=O)N[C@@H]1[C@H]2CC[C@H](C2)[C@@H]1C(=O)NCC1C(C)(C)C1(C)C

>  <QUANTITY UNIT>
nM

>  <EC50>
15

$$$$
>  <MOLECULE>
COc1cc(F)c(O[C@H]2CC[C@@](C)(C(=O)O)CC2)cc1C(=O)N[C@@H]1CC[C@@H]1C(=O)Nc1ccc(F)c(S(F)(F)(F)(F)F)c1 (racemic)

>  <QUANTITY UNIT>
nM

>  <EC50>
6.4

$$$$
>  <MOLECULE>
COc1cc(F)c(O[C@H]2CC[C@@](C)(C(=O)O)CC2)cc1C(=O)N[C@@H]1[C@H]2CC[C@H](C2)[C@@H]1C(=O)NC1CCC1

>  <QUANTITY UNIT>
nM

>  <EC50>
890

$$$$
>  <MOLECULE>
COc1cc(C#N)c(O[C@H]2CC[C@@](C)(C(=O)O)CC2)cc1C(=O)N[C@@H]1[C@H]2CC[C@H](C2)[C@@H]1C(=O)NCC1(C#N)CCC1

>  <QUANTITY UNIT>
nM

>  <EC50>
370

$$$$

(A) COc1cc(F)c(O[C@H]2CC[C@@H](C(=O)O)CC2)cc1C(=O)N[C@@H]1CC(F)(F)C[C@@H]1C(=O)Nc1ccc(F)c(C(F)(F)F)c1 (racemic)
(B) COc1cc(F)c(-c2nnc(CCC(=O)O)s2)cc1C(=O)N[C@H]1C(C(=O)Nc2cccc(S(=O)(=O)C(F)(F)F)c2)[C@@H]2CC[C@H]1C2 (some centres unmarked)
IN: Which of the two items, A and B , has the greater recorded EC50? # answer = label of selected item
OUT: B
(B: 800 nM, A: 420 nM)

----------
Target: human RXFP1 (Homo sapiens, UniProt Q9HBX9)
Sequence (Q9HBX9 1-757): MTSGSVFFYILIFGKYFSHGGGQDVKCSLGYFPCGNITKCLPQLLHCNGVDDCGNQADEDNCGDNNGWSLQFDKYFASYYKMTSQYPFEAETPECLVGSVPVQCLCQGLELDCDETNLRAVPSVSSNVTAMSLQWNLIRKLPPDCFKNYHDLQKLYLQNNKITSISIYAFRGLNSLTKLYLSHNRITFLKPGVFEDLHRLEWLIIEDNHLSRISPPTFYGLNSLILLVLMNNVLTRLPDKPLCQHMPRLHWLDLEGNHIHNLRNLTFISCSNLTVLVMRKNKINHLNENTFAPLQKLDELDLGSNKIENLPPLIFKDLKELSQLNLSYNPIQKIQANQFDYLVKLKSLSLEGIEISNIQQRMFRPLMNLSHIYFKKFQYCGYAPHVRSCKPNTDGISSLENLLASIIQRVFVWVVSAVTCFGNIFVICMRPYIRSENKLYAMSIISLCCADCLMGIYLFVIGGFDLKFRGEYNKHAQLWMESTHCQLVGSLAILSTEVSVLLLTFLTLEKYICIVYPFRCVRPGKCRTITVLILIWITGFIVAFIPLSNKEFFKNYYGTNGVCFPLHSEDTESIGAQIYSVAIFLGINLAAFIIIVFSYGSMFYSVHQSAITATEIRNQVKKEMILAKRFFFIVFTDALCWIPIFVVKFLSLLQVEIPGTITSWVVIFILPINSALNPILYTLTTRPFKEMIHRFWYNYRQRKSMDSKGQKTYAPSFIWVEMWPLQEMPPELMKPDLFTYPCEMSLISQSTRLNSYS
Assay: RXFP1 Hu cAMP (Test A)
Assay type: cell-based
Set-up: expressed in transfected cells; host or cells: Jump-In T-REx CHO-K1 cells (ThermoFisher), induced with 10 ng/ml doxycycline for 24 h
Conditions: RXFP1 Hu cAMP
MEASUREMENT NAME: Test A Sinf (%)

These solved cases illustrate the format of a correct answer.
>  <COMPOUND>
COc1cc(F)c(-c2ccc(C(=O)O)cc2)cc1C(=O)N[C@@H]1[C@H]2CC[C@H](C2)[C@@H]1C(=O)NCC(C)(C)C

>  <QUANTITY UNIT>
%

>  <Test A Sinf>
95

$$$$
>  <COMPOUND>
COc1cc(F)c(-c2cc(C(=O)O)ccn2)cc1C(=O)N[C@H]1[C@@H](C(=O)Nc2cccc(S(=O)(=O)C(F)(F)F)c2)[C@@H]2C=C[C@H]1C2 (racemic)

>  <QUANTITY UNIT>
%

>  <Test A Sinf>
122

$$$$
>  <COMPOUND>
COc1cc(F)c(O[C@H]2CC[C@@H](C(=O)O)CC2)cc1C(=O)N[C@@H]1[C@H]2CC[C@H](C2)[C@@H]1C(=O)Nc1ccc(C)c(C#N)c1

>  <QUANTITY UNIT>
%

>  <Test A Sinf>
97

$$$$
>  <COMPOUND>
COc1cc(NC(=O)[C@H]2[C@@H]3CC[C@@H](C3)[C@H]2NC(=O)c2cc(O[C@H]3CC[C@@H](C(=O)O)CC3)c(F)cc2OC)cc(C(F)(F)F)c1

>  <QUANTITY UNIT>
%

>  <Test A Sinf>
99

$$$$

(A) COCCOc1cc(F)c(O[C@H]2CC[C@@](C)(C(=O)O)CC2)cc1C(=O)N[C@@H]1[C@H]2CC[C@H](C2)[C@@H]1C(=O)NCC1(C)CCC1
(B) COc1cc(C#N)c(O[C@H]2CC[C@@](C)(C(=O)O)CC2)cc1C(=O)Nc1cc(Cl)ccc1C(=O)NCC(C)(C)F
IN: Of the two listed items, A and B , which carries the larger Test A Sinf figure? Lab log: write the label of the selected item as the result.
OUT: B
(B: 142%, A: 99%)

----------
Biological target: human RXFP1 (Homo sapiens, UniProt Q9HBX9)
Assay: RXFP1 Hu cAMP (Test A)
Assay type: cell-based
Design: expressed in transfected cells; host or cells: Jump-In T-REx CHO-K1 cells (ThermoFisher), induced with 10 ng/ml doxycycline for 24 h
Details: RXFP1 Hu cAMP; read-out: Test A EC50
pEC50: −log10 of the molar value.
MEASUREMENT NAME: pEC50

>  <COMPOUND SMILES>
COc1cc(C#N)c(O[C@H]2CC[C@@](C)(C(=O)O)CC2)cc1C(=O)N[C@@H]1[C@H]2CC[C@H](C2)[C@@H]1C(=O)NCC1(C)CC1

>  <pEC50>
7.26

$$$$
>  <COMPOUND SMILES>
COc1cc(C#N)c(O[C@H]2CC[C@@H](C(=O)O)CC2)cc1C(=O)N[C@@H]1[C@H]2CC[C@H](C2)[C@@H]1C(=O)Nc1cccc(S(=O)(=O)C(F)(F)F)c1

>  <pEC50>
7.72

$$$$

(P) COc1cc(C#N)c(O[C@H]2CC[C@@](C)(C(=O)O)CC2)cc1C(=O)N[C@@H]1[C@H]2CC[C@H](C2)[C@@H]1C(=O)NCC(C)(C)C(F)(F)F
(Q) COc1cc(F)c(-c2ccc(-c3nn[nH]n3)cc2)cc1C(=O)N[C@@H]1[C@H]2CC[C@H](C2)[C@@H]1C(=O)Nc1cccc(S(=O)(=O)C(F)(F)F)c1
(R) COc1cc(F)c(O[C@H]2CC[C@@H](C(=O)O)CC2)cc1C(=O)N[C@@H]1[C@H]2CC[C@H](C2)[C@@H]1C(=O)Nc1cccc(I)c1
(S) COc1cc(F)c(O[C@H]2CC[C@@](C)(C(=O)O)CC2)cc1C(=O)N[C@@H]1CCC[C@@H]1C(=O)N[C@@H](C)C(C)(C)C
IN: Order the records so the highest pEC50 appears first and the lowest last. Put the labels in the requested order and write them down.
OUT: P, Q, R, S

----------
Molecular target: human RXFP1 (Homo sapiens)
Experiment: RXFP1 Hu cAMP (Test A)
Type: cell-based
Parameters: expressed in transfected cells; host or cells: Jump-In T-REx CHO-K1 cells (ThermoFisher), induced with 10 ng/ml doxycycline for 24 h
Conditions: RXFP1 Hu cAMP; read-out: Test A EC50
MEASUREMENT NAME: EC50 (nM)

>  <COMPOUND>
COc1cc(F)c(O[C@H]2CC[C@@](C)(C(=O)O)CC2)cc1C(=O)N[C@H]1C[C@@H](OC)C[C@H]1C(=O)Nc1cccc(S(=O)(=O)C(F)(F)F)c1 (stereo in doubt)

>  <ASSAYED TARGET>
human RXFP1 (Homo sapiens)

>  <QUANTITY UNIT>
nM

>  <EC50>
270

$$$$
>  <COMPOUND>
COc1cc(F)c(-c2cccc(CCC(=O)O)c2)cc1C(=O)N[C@@H]1CCC[C@@H]1C(=O)Nc1cccc(S(=O)(=O)C(F)(F)F)c1

>  <ASSAYED TARGET>
human RXFP1 (Homo sapiens)

>  <QUANTITY UNIT>
nM

>  <EC50>
750

$$$$

(P) COc1cc(C#N)c(O[C@H]2CC[C@@](C)(C(=O)O)CC2)cc1C(=O)N[C@@H]1CC[C@@H]1C(=O)NCC1(C)CCC1 (racemic)
(Q) COc1cc(F)c(OCc2cccc(C(=O)O)c2)cc1C(=O)N[C@H]1[C@@H](C(=O)Nc2cccc(S(=O)(=O)C(F)(F)F)c2)[C@@H]2C=C[C@H]1C2 (racemic)
IN: I need your help: which of the pair P , Q has higher EC50? Refer to your chosen entry by its label in the reply.
OUT: Q
(Q: 1600 nM, P: 560 nM)
